system: upland rice (Oryza sp., var. Tebonnet, RICE); assay: Pre-emerge test, crop safety; assay type: in vivo; conditions: 63 g ai/ha; pre-emerge; rated 14 days after application; 0 = no damage, 100 = complete death
measured.parameter: Pre-emerge crop damage RICE (phytotoxicity rating, scale 0-100)

C=Cc1ccc(C(=O)Nc2c(OC)c(Cl)cc(F)c2-n2c(=O)cc(C(F)(F)F)n(C)c2=O)cc1: 40
CCCc1ccc(C(=O)N(C(=O)c2ccc(CCC)cc2)c2c(OC)c(Cl)cc(F)c2-n2c(=O)cc(C(F)(F)F)n(C)c2=O)cc1: 40
COc1c(Cl)cc(F)c(-n2c(=O)cc(C(F)(F)F)n(C)c2=O)c1NC(=O)C(C)(C)C: 20

Respectfully, I request Pre-emerge crop damage RICE (phytotoxicity rating, scale 0-100) for each entry included below.
1. CCOC(=O)C(C)Nc1c(OC)c(Cl)cc(F)c1-n1c(=O)cc(C(F)(F)F)n(C)c1=O (stereo not shown)
2. COc1c(Cl)cc(F)c(-n2c(=O)cc(C(F)(F)F)n(C)c2=O)c1N=C(Cl)C(Cl)(Cl)Cl

Resp:
0
10
